// reported Kd for each item listed
- EXPERIMENTAL_TARGET: (NPNA)3 (Plasmodium falciparum)
- EXPERIMENT_SUMMARY: BLI, target on sensor
Entry rule: numbers only, all in nM.

binder="AB-007031 (antibody, V domains shown) VH: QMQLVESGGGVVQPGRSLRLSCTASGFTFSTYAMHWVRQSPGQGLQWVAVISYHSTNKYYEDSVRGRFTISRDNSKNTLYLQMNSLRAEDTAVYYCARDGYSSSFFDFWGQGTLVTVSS VL: DIQMTQSPSTLSASVGDRVAITCRASQSISRWLAWYQQQPGKAPKLLISGASVLESGVPSRFSGSGSGTEFTLTISSLQPDDFATYYCQHYNSYFVTFGQGTKVEIK" number=0.003

Next binder, Kd to be filled in.
So what's the measured Kd for this one? AB-007065 (antibody, V domains shown) VH: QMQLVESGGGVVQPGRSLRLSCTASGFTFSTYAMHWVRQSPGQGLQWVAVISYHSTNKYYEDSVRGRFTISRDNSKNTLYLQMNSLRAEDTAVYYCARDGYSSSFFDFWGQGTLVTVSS VL: DIQMTQSPSTLSASVGDRVAITCRASQSISRWLAWYQQQPGKAPKLLMSKASVLESGVPSRFSGSGSGTEFTLTISSLQPDDFATYYCQHYNSYFVTFGQGTKVEIK
2.23
